# credit: ChEMBL document CHEMBL2321685

The entries below come with measured remaining at 1 h values attached.
# experimental_protocol: Metabolic stability in rat liver S9 fraction assessed as compound remaining after 60 mins
# Type: ADME, subcellular
# condition_details: liver S9 fraction, read-out: Stability
Value expressed in %; do not type the unit.

// below: answered compounds
Value of measured remaining at 1 h for the entry "CC(C)COc1ccc(-c2cc(=O)[nH]c(N)n2)cc1C#N" : 65.6

Value of measured remaining at 1 h for the entry "CC(C)COc1ccc(-c2ccnc(N)n2)cc1C#N" : 71.3

Value of measured remaining at 1 h for the entry "CC(C)COc1ccc(-c2cc(=O)[nH]cn2)cc1C#N" : 13.5

---
Value of measured remaining at 1 h for the entry COC(=O)C1CCC(COc2ccc(-c3cc(O)nc(N)n3)cc2C#N)CC1 (centres undefined) : 0

Value of measured remaining at 1 h for the entry "COC(=O)C(C)(C)COc1ccc(-c2cc(=O)[nH]c(N)n2)cc1C#N" : 93.6

Value of measured remaining at 1 h for the entry "N#Cc1cc(-c2cc(O)nc(N)n2)ccc1OCC1CCCCC1" : 86.8

Value of measured remaining at 1 h for the entry COC(=O)C1CCC(COc2ccc(-c3ccnc(N)n3)cc2C#N)CC1 (centres undefined) : 11

Value of measured remaining at 1 h for the entry "CC(C)(COc1ccc(-c2cc(O)nc(N)n2)cc1C#N)C(=O)O" : 98.9

Value of measured remaining at 1 h for the entry N#Cc1cc(-c2cc(=O)[nH]c(N)n2)ccc1OCC1CCC(C(=O)O)CC1 (centres undefined) : 101

----------
# experimental_protocol: Metabolic stability in rat plasma assessed as compound remaining after 60 mins
# Format: ADME, cell-free
# condition_details: read-out: Stability
Exam item: assign T to entries whose remaining at 1 h is below 90% and F to entries at or above 90%. Note that a value of exactly 90% receives F.

Given the entry "COC(=O)C(C)(C)COc1ccc(-c2cc(=O)[nH]c(N)n2)cc1C#N" , would its reported remaining at 1 h be below 90%?
T

Given the entry "CC(C)(C)COc1ccc(-c2cc(=O)[nH]c(N)n2)cc1C#N" , would its reported remaining at 1 h be below 90%?
F

Given the entry N#Cc1cc(-c2cc(=O)[nH]c(N)n2)ccc1OCC1CCC(C(=O)O)CC1 (stereo not given) , would its reported remaining at 1 h be below 90%?
F

Given the entry COC(=O)C1CCC(COc2ccc(-c3ccnc(N)n3)cc2C#N)CC1 (stereo not given) , would its reported remaining at 1 h be below 90%?
T

Given the entry COC(=O)C1CCC(COc2ccc(-c3cc(O)nc(N)n3)cc2C#N)CC1 (stereo not given) , would its reported remaining at 1 h be below 90%?
T

Given the entry "CC(C)COc1ccc(-c2cc(=O)[nH]c(N)n2)cc1C#N" , would its reported remaining at 1 h be below 90%?
F

---
Given the entry "CC(C)(COc1ccc(-c2cc(O)nc(N)n2)cc1C#N)C(=O)O" , would its reported remaining at 1 h be below 90%?
T

Given the entry "N#Cc1cc(-c2cc(O)nc(N)n2)ccc1OCC1CCCCC1" , would its reported remaining at 1 h be below 90%?
F

----------
# experimental_protocol: Metabolic stability in rat liver microsomes assessed as compound remaining after 60 mins
# Format: ADME, Microsome
# condition_details: liver microsomes, read-out: Stability
measure: remaining at 1 h (%)
Value expressed in %; do not type the unit.

// below: answered compounds
Value of measured remaining at 1 h for the entry "CC(C)COc1ccc(-c2cc(=O)[nH]cn2)cc1C#N" : 49.6

Value of measured remaining at 1 h for the entry "CC(C)(COc1ccc(-c2cc(O)nc(N)n2)cc1C#N)C(=O)O" : 90.2

API: the following record is the query input.
Value of measured remaining at 1 h for the entry "COC(=O)C(C)(C)COc1ccc(-c2cc(=O)[nH]c(N)n2)cc1C#N" : 95.9

----------
# experimental_protocol: Volume of distribution in Sprague-Dawley rat at 2 mg/kg, iv
# Format: ADME, organism-based
# Set-up: dose 2 mg/kg, route intravenous
# condition_details: in vivo
measure: Vd (L/kg)
Value expressed in L/kg; do not type the unit.

Value of measured Vd for the entry "CC(C)COc1ccc(-c2ccnc(N)n2)cc1C#N" : 5.5

----------
# Test system: Rattus norvegicus
# experimental_protocol: Cmax in Sprague-Dawley rat assessed as 2-(4-(2-amino-6-hydroxypyrimidin-4-yl)-2-cyanophenoxy)-2-methylpropanoic acid level at 10 mg/kg, po
# Format: ADME, organism-based
# Design: dose 10 mg/kg, route oral
# condition_details: in vivo
measure: Cmax (µM)
Value expressed in µM; do not type the unit.

Value of measured Cmax for the entry "COC(=O)C(C)(C)COc1ccc(-c2cc(=O)[nH]c(N)n2)cc1C#N" : 8.46

----------
# experimental_protocol: AUClast in Sprague-Dawley rat at 2 mg/kg, iv
# Assay type: ADME, organism-based
# Parameters: time 0 - last, dose 2 mg/kg, route intravenous
# condition_details: plasma
measure: AUC(0-t)

Value of measured AUC(0-t) for the entry "CC(C)COc1ccc(-c2ccnc(N)n2)cc1C#N" : 2.99 µg·h/mL

----------
# experimental_protocol: Metabolic stability in rat liver microsomes assessed as compound remaining after 60 mins
# Format: ADME, Microsome
# condition_details: liver microsomes, read-out: Stability
Exam item: assign criterion met to entries whose remaining at 1 h is below 20% and criterion not met to entries at or above 20%. Note that a value of exactly 20% receives criterion not met.

Below are worked cases with known answers.
Given the entry COC(=O)C1CCC(COc2ccc(-c3ccnc(N)n3)cc2C#N)CC1 (stereo unspecified) , would its reported remaining at 1 h be below 20%?
criterion met

Given the entry "CC(C)COc1ccc(-c2cc(=O)[nH]c(N)n2)cc1C#N" , would its reported remaining at 1 h be below 20%?
criterion not met

Given the entry N#Cc1cc(-c2cc(=O)[nH]c(N)n2)ccc1OCC1CCC(C(=O)O)CC1 (stereo unspecified) , would its reported remaining at 1 h be below 20%?
criterion not met

Given the entry "N#Cc1cc(-c2cc(O)nc(N)n2)ccc1OCC1CCCCC1" , would its reported remaining at 1 h be below 20%?
criterion not met

---
Given the entry COC(=O)C1CCC(COc2ccc(-c3cc(O)nc(N)n3)cc2C#N)CC1 (stereo unspecified) , would its reported remaining at 1 h be below 20%?
criterion met

Given the entry "CC(C)COc1ccc(-c2ccnc(N)n2)cc1C#N" , would its reported remaining at 1 h be below 20%?
criterion not met

----------
# experimental_protocol: Oral bioavailability in Sprague-Dawley rat at 10 mg/kg
# Assay type: ADME, organism-based
# condition_details: in vivo
measure: bioavailability (%)
Value expressed in %; do not type the unit.

Value of measured bioavailability for the entry "CC(C)COc1ccc(-c2ccnc(N)n2)cc1C#N" : 13.4

API: the following record is the query input.
Value of measured bioavailability for the entry "CC(C)COc1ccc(-c2cc(=O)[nH]c(N)n2)cc1C#N" : 8.6

----------
// each record: one item and its IC50 for Xanthine dehydrogenase/oxidase (Bos taurus, UniProt P80457)
Value expressed in nM; do not type the unit.

Value of measured IC50 for the entry "N#Cc1cc(-c2cc(O)nc(N)n2)ccc1OCC1CCCCC1" : 10

Value of measured IC50 for the entry "N#Cc1cc(-c2cc(O)nc(N)n2)ccc1OCc1ccccc1C(F)(F)F" : 9

Value of measured IC50 for the entry COC(=O)C1CCC(COc2ccc(-c3ccnc(N)n3)cc2C#N)CC1 (stereo unspecified) : 10

Value of measured IC50 for the entry "N#Cc1cc(-c2cc(O)nc(N)n2)ccc1OCc1ccc(F)cc1" : 7

API: the following record is the query input.
Value of measured IC50 for the entry "COC(=O)C(C)(C)COc1ccc(-c2cc(=O)[nH]c(N)n2)cc1C#N" : 15
